Hello, the source for this data is paper PMC7518156, in case you need it.

Assay: Pharmacokinetics of ERL and GEF in Wistar rats after four weeks consumption of water or flavoured water (plasma, UPLC-MS/MS, non-compartmental analysis)
Type: in vivo
Settings: male, Wistar, rat, plasma, po, 20 mg/kg, rats, 20 mg/kg oral; water (control); n = 5, mean (SD); read-out: tmax
Procedure: Fifty healthy male Wistar rats weighing 250 ± 30 g were obtained from the animal house, College of Pharmacy, King Saud University, Riyadh, Saudi Arabia. Rats were randomly divided into ten cages (n = 5). […] Cmax and tmax were obtained from the corresponding plasma concentration–time curve (Figs. 1A and 1B). […] The area under the plasma concentration–time curve from time 0 to the last sampling time t, 48 h (AUC0–t) was calculated using the trapezoidal rule. […]
Measured quantity: Tmax (h)

[[record]]
mol = "C#Cc1cccc(Nc2ncnc3cc(OCCOC)c(OCCOC)cc23)c1"
value_reported = 1.02

[[record]]
mol = "COc1cc2ncnc(Nc3ccc(F)c(Cl)c3)c2cc1OCCCN1CCOCC1"
value_reported = 2


====

Assay: Pharmacokinetics of ERL and GEF in Wistar rats after four weeks consumption of water or flavoured water (plasma, UPLC-MS/MS, non-compartmental analysis)
Format: in vivo
Details: male, Wistar, rat, plasma, po, 20 mg/kg, raw data sheet, from average profile; +Berry FW; read-out: tmax
Readings of Tmax for the listed compounds
Measured quantity: Tmax (h)

[[record]]
mol = "C#Cc1cccc(Nc2ncnc3cc(OCCOC)c(OCCOC)cc23)c1"
measured_quantity = "Tmax"
value_reported = 3

[[record]]
mol = "COc1cc2ncnc(Nc3ccc(F)c(Cl)c3)c2cc1OCCCN1CCOCC1"
measured_quantity = "Tmax"
value_reported = 2


====

Experiment: Pharmacokinetics of ERL and GEF in Wistar rats after four weeks consumption of water or flavoured water (plasma, UPLC-MS/MS, non-compartmental analysis)
Type: in vivo
Conditions: male, Wistar, rat, plasma, oral, 20 mg/kg, PKSolver sheet; dose 20 mg/kg; +Peach; time 0.5 h; read-out: Conc
Measured quantity: concentration at 0.5 h (ng/mL)

[[record]]
mol = "C#Cc1cccc(Nc2ncnc3cc(OCCOC)c(OCCOC)cc23)c1"
value_reported = 67.8

[[record]]
mol = "COc1cc2ncnc(Nc3ccc(F)c(Cl)c3)c2cc1OCCCN1CCOCC1"
value_reported = 135


====

Test: Pharmacokinetics of ERL and GEF in Wistar rats after four weeks consumption of water or flavoured water (plasma, UPLC-MS/MS, non-compartmental analysis)
Type: in vivo
Conditions: male, Wistar, rat, plasma, po, 20 mg/kg, rats, 20 mg/kg oral; +Berry FW; average; time 0.5 h; read-out: Conc*10 (ng/mL plasma)
Measured quantity: concentration at 0.5 h (ng/mL)

[[record]]
mol = "C#Cc1cccc(Nc2ncnc3cc(OCCOC)c(OCCOC)cc23)c1"
measured_quantity = "concentration at 0.5 h"
value_reported = 46.3

[[record]]
mol = "COc1cc2ncnc(Nc3ccc(F)c(Cl)c3)c2cc1OCCCN1CCOCC1"
measured_quantity = "concentration at 0.5 h"
value_reported = 99.7

